Entry source: ChEMBL document CHEMBL1800030

test system: A549; assay: Cytotoxicity against human A549 cells after 48 hrs by SRB assay; format: functional; conditions: A549, 48 h
MEASURED ENDPOINT: GI50 (nM)
Value expressed in nM; do not type the unit.

>>> df
                                   molecule  recorded_number
0  COc1cc2c(cc1OCCCCC(=O)Nc1ccc(C)c(Nc3nccc(-c4cc(OC)c(OC)c(OC)c4)n3)c1)N=C[C@@H]1C[C@H](F)CN1C2=O             2500
1  COc1cc2c(cc1OCc1ccc(C(=O)Nc3ccc(C)c(Nc4nccc(-c5cccnc5)n4)c3)cc1)N=C[C@@H]1C[C@H](F)CN1C2=O              160
2  COc1cc2c(cc1OCc1ccc(C(=O)Nc3ccc(C)c(Nc4nccc(-c5cccnc5)n4)c3)cc1)N=C[C@@H]1CCCN1C2=O              140
3  COc1cc2c(cc1OCCCCC(=O)Nc1ccc(C)c(Nc3nccc(-c4cccnc4)n3)c1)N=C[C@@H]1CCCN1C2=O             2300
4  COc1cccc2c1C(=O)c1c(O)c3c(c(O)c1C2=O)C[C@@](O)(C(=O)CO)C[C@@H]3O[C@H]1C[C@H](N)[C@H](O)[C@H](C)O1 [DOXORUBICIN]              150

## Task Would you mind telling me what GI50 value was observed for COc1cc2c(cc1O)N=C[C@@H]1CCCN1C2=O ?
## Result 160

## Task Looking for the measured GI50 of COc1cc2c(cc1OCCCCC(=O)Nc1ccc(C)c(Nc3nccc(-c4cc(OC)c(OC)c(OC)c4)n3)c1)N=C[C@@H]1CCCN1C2=O , can you help?
## Result 2300
